- System: Escherichia coli TOP10;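 also: peptides expressed intracellularly from a pBAD plasmid library in pooled LB shake-flask culture, induced with 0.3% L-arabinose, DNA abundance read by NGS, three biological replicates, DESeq2 with apeglm shrinkage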
- protocol summary: shrunken log2 fold change of peptide-encoding DNA abundance (4.5 h post-induction vs induction); higher = less antimicrobial activity (less host growth inhibition)
- condition context: time post-induction: 4.5 h; library: site-saturation at positions 5, 18, 19, 20
This listing pairs sequences with measured shrunken log2 fold change.
Give only the figure.

Observe how each entry below is paired with its result.
# sequence entry, shrunken log2 fold change
rows = [
    ("RRIRFRPPRLPRPRPRPMNDPRP", -0.122),
    ("RRIRQRPPRLPRPRPRPCWTPRP", -0.0267),
]

Write down the reported shrunken log2 fold change of RRIRHRPPRLPRPRPRPQLRPRP , test system: Escherichia coli TOP10. -0.343

What would you report for RRIRQRPPRLPRPRPRPWFKPRP ? -0.183

Item: RRIRDRPPRLPRPRPRPNVCPRP -0.0195

# iterate: RRIRYRPPRLPRPRPRPHNRPRP -0.245

Similarly, RRIRRRPPRLPRPRPRPQNGPRP ? -0.0551

Repeat with RRIRTRPPRLPRPRPRPKIYPRP -0.191

# iterate: RRIRERPPRLPRPRPRPSVKPRP -0.625

This collection of values is drawn from the supplement of paper PMC9112550.
